Assay: Cmax in healthy human at 250 mg/day, po administered for 21 days measured at day 1
Format: ADME, organism-based
Parameters: dose 250 mg/day, route oral
Conditions: in vivo
Readout Kind: Cmax (ng/mL)

- O=C(NN1C(=O)[C@@H]2[C@@H]3C=C[C@@H]([C@H]4C[C@@H]34)[C@@H]2C1=O)c1ccc(C(F)(F)F)cc1: 985

* * *

Assay: Cmax in healthy human at 250 mg/day, po administered for 21 days measured at day 6
Format: ADME, organism-based
Set-up: dose 250 mg/day, route oral
Details: in vivo
Readout Kind: Cmax (ng/mL)

• O=C(NN1C(=O)[C@@H]2[C@@H]3C=C[C@@H]([C@H]4C[C@@H]34)[C@@H]2C1=O)c1ccc(C(F)(F)F)cc1 [TECOVIRIMAT] = 1210

* * *

Test: AUC in healthy human at 800 mg/day, po administered for 21 days measured at day 21
Format: ADME, organism-based
Conditions: plasma
Readout Kind: AUC at 504 h (ng·h/mL)

- O=C(NN1C(=O)[C@@H]2[C@@H]3C=C[C@@H]([C@H]4C[C@@H]34)[C@@H]2C1=O)c1ccc(C(F)(F)F)cc1 [TECOVIRIMAT]: 22700
